# Run description: Cytotoxicity against human HepG2 cells treated for 8 days measured post-last dose by Celltiter-glo luminescent assay
# Type: cell-based
Measured endpoint: CC50 at 192 h (nM)
Only the number, expressed in nM, is required.

Entry COc1nc(N)nc2c1ncn2[C@@H]1O[C@H](COP(=O)(N[C@@H](C)C(=O)OCC(C)(C)C)Oc2cccc3ccccc23)[C@@H](O)[C@@]1(C)O (some centres not stated) , CC50 at 192 h reported as 1500

----------
# Tested target: DNA polymerase gamma (Homo sapiens, UniProt P54098)
# Sequence (P54098 whole entry): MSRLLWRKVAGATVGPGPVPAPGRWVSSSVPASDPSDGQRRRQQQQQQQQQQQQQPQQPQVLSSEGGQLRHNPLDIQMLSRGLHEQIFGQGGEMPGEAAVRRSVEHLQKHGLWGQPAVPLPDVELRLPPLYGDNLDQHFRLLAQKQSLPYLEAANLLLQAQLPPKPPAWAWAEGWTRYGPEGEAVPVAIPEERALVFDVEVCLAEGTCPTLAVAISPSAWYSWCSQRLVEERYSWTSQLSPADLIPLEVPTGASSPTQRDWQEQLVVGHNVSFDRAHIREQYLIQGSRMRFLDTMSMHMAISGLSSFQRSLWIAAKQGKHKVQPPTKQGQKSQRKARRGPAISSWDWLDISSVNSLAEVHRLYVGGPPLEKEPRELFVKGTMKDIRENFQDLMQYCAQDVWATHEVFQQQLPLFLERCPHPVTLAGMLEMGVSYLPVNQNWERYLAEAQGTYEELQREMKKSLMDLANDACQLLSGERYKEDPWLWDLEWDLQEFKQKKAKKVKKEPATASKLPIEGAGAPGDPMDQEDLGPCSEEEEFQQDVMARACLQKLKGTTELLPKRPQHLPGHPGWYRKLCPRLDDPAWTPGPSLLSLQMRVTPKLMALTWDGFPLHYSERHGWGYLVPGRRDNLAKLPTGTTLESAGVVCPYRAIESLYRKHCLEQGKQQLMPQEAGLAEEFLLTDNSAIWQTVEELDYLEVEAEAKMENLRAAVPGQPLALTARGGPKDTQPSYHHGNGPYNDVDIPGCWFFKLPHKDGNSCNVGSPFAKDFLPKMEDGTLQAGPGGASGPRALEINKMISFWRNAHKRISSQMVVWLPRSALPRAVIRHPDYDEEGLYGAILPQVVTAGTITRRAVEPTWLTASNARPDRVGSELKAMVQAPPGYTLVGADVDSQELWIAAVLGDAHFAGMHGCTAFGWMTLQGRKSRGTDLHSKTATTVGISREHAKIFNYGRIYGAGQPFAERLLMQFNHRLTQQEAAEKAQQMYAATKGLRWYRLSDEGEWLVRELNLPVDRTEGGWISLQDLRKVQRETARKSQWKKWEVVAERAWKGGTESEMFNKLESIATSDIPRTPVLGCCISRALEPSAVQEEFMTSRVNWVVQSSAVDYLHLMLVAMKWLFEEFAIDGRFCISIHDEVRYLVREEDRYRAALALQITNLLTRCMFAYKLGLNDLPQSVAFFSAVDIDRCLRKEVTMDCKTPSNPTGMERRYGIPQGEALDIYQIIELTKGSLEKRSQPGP
# Run description: Inhibition of human DNA polymerase-gamma assessed as reduction in [3H]dTTP incorporation in to activated calf thymus DNA substrate at 100 uM by scintillation counting method relative to control
# Assay context: human DNA polymerase-gamma enzyme, probe [3H]dTTP
Please respond with reported inhibition at 100 µM for every item in the list.
Please state the figure in %; there is no need to write the unit.

The value of inhibition at 100 µM recorded for `C[C@@]1(F)[C@H](O)[C@@H](COP(=O)(O)OP(=O)(O)OP(=O)(O)O)O[C@H]1n1ccc(=O)[nH]c1=O` when tested on DNA polymerase gamma (Homo sapiens, UniProt P54098) reads 9.2

Lab note: molecule C[C@]1(O)[C@H](n2ccc(=O)[nH]c2=O)O[C@](F)(COP(=O)(O)OP(=O)(O)OP(=O)(O)O)[C@H]1O [ADAFOSBUVIR 5'-TRIPHOSPHATE] tested on DNA polymerase gamma (Homo sapiens, UniProt P54098); recorded inhibition at 100 µM was 9.6

inhibition at 100 µM of `O=c1ccn([C@@H]2O[C@H](COP(=O)(O)OP(=O)(O)OP(=O)(O)O)[C@@H](O)[C@]2(F)Cl)c(=O)[nH]1` , assay on DNA polymerase gamma (Homo sapiens, UniProt P54098), is 15.7
